- System: MDA-MB-435 melanoma
- procedure-text: NCI-60 one-dose screen, 48 h
- measurement-conditions: 10 µM
This is part of a sample that, as a whole, favours compounds with a hit. Of some 83,000 tested, about 20% had one in any assay. Activity calls are given as the source filed them. The calls were made as follows: active = growth percent below 10; inactive = the rest.
Pick one: yes (1) (active), no (0) (inactive)

Query: What call does the record list for OCC1OC2C(NC(=S)N2c2ccccc2)C(O)C1O (stereo not given) ?
Response: no (0)

====

- Test system: SNB-75 CNS
- procedure-text: NCI-60 one-dose screen, 48 h
- measurement-conditions: 10 µM
About 83,000 compounds went through this panel and 20% of them were active in at least one assay; those are over-represented in the sample as a whole. Calls of active or inactive are those of the source. Rule for the calls: active = growth percent below 10; inactive = the rest.
Valid outcomes are listed here; reply with one: TRUE (active), FALSE (inactive)

Some solved entries appear below for comparison.
COc1ccc(/C(=N\N)C(=O)c2ccccc2)cc1 (tested in a mixture with another compound) ... FALSE
CS(=O)(=O)c1nccc(-c2c(-c3cccc(OCc4ccc(F)cc4)c3)nc3sccn23)n1 ... FALSE
COc1cc2cc(Oc3ccc(NC(=O)c4ccc(Cl)c(C(F)(F)F)c4)cc3)c(C)nc2cc1OC ... FALSE
COCCn1cc(-c2nc(-c3cccnc3)cs2)c2cc(F)ccc21 ... FALSE
Cc1ccc(C(=O)/C=C/c2ccccc2)s1 ... FALSE
OC[C@H]1OC([S-])[C@H](O)[C@@H](O)[C@@H]1O.[Au+] (some centres undefined) ... FALSE
CNC(=O)c1cn(C2CC2)c2cc(N3CCN(C(=O)c4cc(OC)c(OC)c(OC)c4)CC3)c(F)cc2c1=O ... FALSE
COc1ccc(-c2cc(-c3ccccc3)nc(SCCCCCCC(=O)NO)n2)cc1 ... FALSE

Query: Kindly provide the recorded test outcome for the following compound: `O=C(O)Cc1ccc(O)c(O)c1`
Response: FALSE

Query: Entry `CCOC(=O)c1sc2ncnc(Nc3ccc(NC(=O)Nc4ccc(Cl)cc4)cc3)c2c1C` : call = ?
Response: FALSE

Query: Hi, do you know how `COc1cc2cc(Oc3ccc(NC(=O)Nc4ccc(Cl)c(C(F)(F)F)c4)cc3)c(C)nc2cc1OC` came out in this test?
Response: FALSE

Query: What is the recorded call for this compound in the test? `COc1cc(C(=O)/C(C)=C/c2c[nH]c3ccccc23)cc(OC)c1OC`
Response: FALSE

Query: Called result for `COc1cc(/C=C/c2cc(/C=C/c3ccc(O)c(OC)c3)n(C(=O)Nc3ccc(C)cc3)n2)ccc1O`
Response: TRUE
